- test conditions: 358.15 K; 101.33 kPa; Liquid; Vibrating tube method
measurement label: mass density (kg/m3)
Report the figure in kg/m3 without appending any unit label.

// solved cases for mass density follow
INPUT: Please look up its mass density: CCCCn1cc[n+](C)c1.N#C[B-](C#N)(C#N)C#N [1-butyl-3-methyl-1H-imidazolium tetracyanoborate]
OUTPUT: 966.3

INPUT: Which value of mass density has been reported for CCCCCCCCCCn1cc[n+](C)c1.N#C[B-](C#N)(C#N)C#N [1-decyl-3-methyl-1H-imidazolium tetracyanoborate] in the records?
OUTPUT: 922.39

INPUT: // mass density lookup, key: CCCCCCCCn1cc[n+](C)c1.N#CC(=C=[N-])C#N [1-methyl-3-octylimidazolium tricyanomethanide]
OUTPUT: 962.89

INPUT: Can you look up the measured mass density of CCCCCC[n+]1ccn(C)c1.N#C[C-](C#N)C#N [3-hexyl-1-methylimidazolium tricyanomethanide] for me?
OUTPUT: 982.11

INPUT: Dear colleague, I am looking for the recorded mass density of the following compound: CCCCCCCCCC[n+]1ccn(C)c1.N#C[C-](C#N)C#N [3-decyl-1-methylimidazolium tricyanomethanide]
OUTPUT: 946.15

---
INPUT: What does the data say about its mass density? Entry: CCn1cc[n+](C)c1.N#C[C-](C#N)C#N [1-ethyl-3-methyl-1H-imidazolium tricyanomethanide]
OUTPUT: 1039.93

INPUT: Dear colleague, I am looking for the recorded mass density of the following compound: CCCCCCCCn1cc[n+](C)c1.N#C[B-](C#N)(C#N)C#N [1-methyl-3-octylimidazolium tetracyanoborate]
OUTPUT: 934.15

====

Reported values of mass density for individual entries
- test conditions: 303.15 K; 101.33 kPa; Liquid; Vibrating tube method
Give a bare numeral; the unit kg/m3 is implied.

INPUT: Could you tell me which mass density is on file for CCCCCCCCn1cc[n+](C)c1.N#CC(=C=[N-])C#N [1-methyl-3-octylimidazolium tricyanomethanide] ?
OUTPUT: 997.34

INPUT: Please look up its mass density: CCCCCC[n+]1ccn(C)c1.N#C[C-](C#N)C#N [3-hexyl-1-methylimidazolium tricyanomethanide]
OUTPUT: 1017.35

INPUT: Suppose we examine the compound CCCCCCCCCC[n+]1ccn(C)c1.N#C[C-](C#N)C#N [3-decyl-1-methylimidazolium tricyanomethanide] ; what mass density value has been reported?
OUTPUT: 979.98

Next:
INPUT: Can you share its mass density? I mean this compound: CCCCCCCCn1cc[n+](C)c1.N#C[B-](C#N)(C#N)C#N [1-methyl-3-octylimidazolium tetracyanoborate]
OUTPUT: 971.6

====

Overview of recorded mass density for various molecules
- test conditions: 283.15 K; 101.33 kPa; Liquid; Vibrating tube method
Reply numerically in kg/m3, unit not repeated.

INPUT: Can you share its mass density? I mean this molecule: CCCCCCCCn1cc[n+](C)c1.N#CC(=C=[N-])C#N [1-methyl-3-octylimidazolium tricyanomethanide]
OUTPUT: 1010.18

INPUT: Look at this molecule and give its reported mass density. CCCCCCCCCCn1cc[n+](C)c1.N#C[B-](C#N)(C#N)C#N [1-decyl-3-methyl-1H-imidazolium tetracyanoborate]
OUTPUT: 972.81

INPUT: Which mass density is listed for CCCCCC[n+]1ccn(C)c1.N#C[C-](C#N)C#N [3-hexyl-1-methylimidazolium tricyanomethanide] ?
OUTPUT: 1030.55

***
INPUT: What value of mass density has been reported for the following molecule? CCCCCCCCn1cc[n+](C)c1.N#C[B-](C#N)(C#N)C#N [1-methyl-3-octylimidazolium tetracyanoborate]
OUTPUT: 985.65

INPUT: Look at this molecule and give its reported mass density. CCn1cc[n+](C)c1.N#C[C-](C#N)C#N [1-ethyl-3-methyl-1H-imidazolium tricyanomethanide]
OUTPUT: 1091.96

INPUT: Entry CCCCn1cc[n+](C)c1.N#C[B-](C#N)(C#N)C#N [1-butyl-3-methyl-1H-imidazolium tetracyanoborate] : reported mass density = ?
OUTPUT: 1021.17

INPUT: Recorded mass density of CCCCCCCCCC[n+]1ccn(C)c1.N#C[C-](C#N)C#N [3-decyl-1-methylimidazolium tricyanomethanide] , please.
OUTPUT: 992.5

====

- test conditions: 353.15 K; 101.33 kPa; Liquid; Vibrating tube method
measurement label: mass density (kg/m3)
The answer is to be given in kg/m3; state only the numeric part.

Below: 2 compounds and their reported mass density.
INPUT: Reported mass density, compound CCCCCCCCCCn1cc[n+](C)c1.N#C[B-](C#N)(C#N)C#N [1-decyl-3-methyl-1H-imidazolium tetracyanoborate] : ____
OUTPUT: 925.65

INPUT: Any idea what mass density was measured for CCCCCC[n+]1ccn(C)c1.N#C[C-](C#N)C#N [3-hexyl-1-methylimidazolium tricyanomethanide] ?
OUTPUT: 985.24

Please turn your attention to the following entry.
INPUT: Which measured mass density value corresponds to CCn1cc[n+](C)c1.N#C[C-](C#N)C#N [1-ethyl-3-methyl-1H-imidazolium tricyanomethanide] ?
OUTPUT: 1043.28

====

# mass density annotations
- test conditions: 323.15 K; 101.33 kPa; Liquid; Vibrating tube method
The answer is to be given in kg/m3; state only the numeric part.

Please review the following examples before continuing.
INPUT: I would be grateful if you could share the reported mass density for CCCCCCCCn1cc[n+](C)c1.N#C[B-](C#N)(C#N)C#N [1-methyl-3-octylimidazolium tetracyanoborate] .
OUTPUT: 957.76

INPUT: Quick one: mass density of CCCCCC[n+]1ccn(C)c1.N#C[C-](C#N)C#N [3-hexyl-1-methylimidazolium tricyanomethanide] ?
OUTPUT: 1004.35

Further cases:
INPUT: Give its mass density value. Item: CCCCn1cc[n+](C)c1.N#C[B-](C#N)(C#N)C#N [1-butyl-3-methyl-1H-imidazolium tetracyanoborate]
OUTPUT: 991.34

====

Below: a set of entries, each annotated with reported thermal conductivity.
- test conditions: 343.15 K; 101.33 kPa; Liquid; Parallel plate method
Answer in W/m/K, number only, no unit symbol.

INPUT: Request the reported thermal conductivity associated with CCCCCCCCn1cc[n+](C)c1.N#CC(=C=[N-])C#N [1-methyl-3-octylimidazolium tricyanomethanide]
OUTPUT: 0.1642

INPUT: Request the reported thermal conductivity associated with CCCCCCn1cc[n+](C)c1.N#C[B-](C#N)(C#N)C#N [1-hexyl-3-methylimidazolium tetracyanoborate]
OUTPUT: 0.1677

INPUT: Find the recorded thermal conductivity belonging to CCCCn1cc[n+](C)c1.N#C[B-](C#N)(C#N)C#N [1-butyl-3-methyl-1H-imidazolium tetracyanoborate] and report it.
OUTPUT: 0.1664

INPUT: Suppose we examine the compound CCCCCCCCn1cc[n+](C)c1.N#C[B-](C#N)(C#N)C#N [1-methyl-3-octylimidazolium tetracyanoborate] ; what thermal conductivity value has been reported?
OUTPUT: 0.1543

INPUT: Report thermal conductivity for CCCCCCCCCC[n+]1ccn(C)c1.N#C[C-](C#N)C#N [3-decyl-1-methylimidazolium tricyanomethanide] please.
OUTPUT: 0.162

New cases:
INPUT: Look up thermal conductivity for this compound: CCn1cc[n+](C)c1.N#C[C-](C#N)C#N [1-ethyl-3-methyl-1H-imidazolium tricyanomethanide]
OUTPUT: 0.1883

INPUT: Dear colleague, I am looking for the recorded thermal conductivity of the following compound: CCCCCCCCCCn1cc[n+](C)c1.N#C[B-](C#N)(C#N)C#N [1-decyl-3-methyl-1H-imidazolium tetracyanoborate]
OUTPUT: 0.16

INPUT: For the compound shown here, CCCCCC[n+]1ccn(C)c1.N#C[C-](C#N)C#N [3-hexyl-1-methylimidazolium tricyanomethanide] , give the reported thermal conductivity.
OUTPUT: 0.1774

====

Listing of recorded thermal conductivity by entry.
- test conditions: 333.15 K; 101.33 kPa; Liquid; Parallel plate method
± gives the expanded uncertainty stated by the source.
In your response, put the unit directly after the numeric value.

INPUT: What value of thermal conductivity has been reported for the following molecule? CCCCCCCCn1cc[n+](C)c1.N#CC(=C=[N-])C#N [1-methyl-3-octylimidazolium tricyanomethanide]
OUTPUT: 0.1655 ± 0.0056 W/m/K

INPUT: I have this molecule here, CCCCn1cc[n+](C)c1.N#C[B-](C#N)(C#N)C#N [1-butyl-3-methyl-1H-imidazolium tetracyanoborate] , and I need its recorded thermal conductivity.
OUTPUT: 0.1693 ± 0.0057 W/m/K

INPUT: What thermal conductivity value was documented for this molecule, CCCCCCn1cc[n+](C)c1.N#C[B-](C#N)(C#N)C#N [1-hexyl-3-methylimidazolium tetracyanoborate] ?
OUTPUT: 0.1697 ± 0.0057 W/m/K

INPUT: Tell me the measured thermal conductivity of CCCCCC[n+]1ccn(C)c1.N#C[C-](C#N)C#N [3-hexyl-1-methylimidazolium tricyanomethanide] , please.
OUTPUT: 0.1792 ± 0.006 W/m/K

INPUT: Which measured thermal conductivity value corresponds to CCn1cc[n+](C)c1.N#C[C-](C#N)C#N [1-ethyl-3-methyl-1H-imidazolium tricyanomethanide] ?
OUTPUT: 0.1896 ± 0.0064 W/m/K

INPUT: Looking for the measured thermal conductivity of CCCCCCCCn1cc[n+](C)c1.N#C[B-](C#N)(C#N)C#N [1-methyl-3-octylimidazolium tetracyanoborate] , can you help?
OUTPUT: 0.1573 ± 0.0053 W/m/K

INPUT: I am curious: what thermal conductivity value has been reported for CCCCCCCCCCn1cc[n+](C)c1.N#C[B-](C#N)(C#N)C#N [1-decyl-3-methyl-1H-imidazolium tetracyanoborate] ?
OUTPUT: 0.1613 ± 0.0054 W/m/K

INPUT: Which thermal conductivity reading was recorded for the molecule CCCCCCCCCC[n+]1ccn(C)c1.N#C[C-](C#N)C#N [3-decyl-1-methylimidazolium tricyanomethanide] ?
OUTPUT: 0.1646 ± 0.0056 W/m/K

Sourced from the NIST ThermoML archive (doi:10.1007/s10765-014-1617-1)
